Type: in vivo
CONDITIONS_USED: male, Sprague-Dawley, rat, blood dialysate, iv, 100 mg/kg
EXPERIMENTAL_READOUT: AUC
Report the figure along with its unit, number first.

Query block: Item CC(C)C(=O)OC[C@H]1O[C@@H](n2ccc(NO)nc2=O)[C@H](O)[C@@H]1O has what recorded AUC?
Result block: 110 µg·h/mL

* * *

MEASUREMENT_PROTOCOL: Pharmacokinetics of molnupiravir and NHC in rat blood and brain
Assay type: in vivo
CONDITIONS_USED: male, Sprague-Dawley, rat, blood dialysate, iv, 100 mg/kg
EXPERIMENTAL_READOUT: MRT (min)
Express it in min; write the number only.

Query block: Item CC(C)C(=O)OC[C@H]1O[C@@H](n2ccc(NO)nc2=O)[C@H](O)[C@@H]1O has what recorded MRT?
Result block: 18

* * *

Type: in vivo
CONDITIONS_USED: male, Sprague-Dawley, rat, blood (microdialysate), iv, 100 mg/kg
EXPERIMENTAL_READOUT: clearance
Report the figure along with its unit, number first.

Query block: Item CC(C)C(=O)OC[C@H]1O[C@@H](n2ccc(NO)nc2=O)[C@H](O)[C@@H]1O [Molnupiravir, molnupiravir] has what recorded clearance?
Result block: 16 mL/min/kg

* * *

MEASUREMENT_PROTOCOL: Pharmacokinetics of molnupiravir and NHC in rat blood and brain
Format: in vivo
CONDITIONS_USED: male, Sprague-Dawley, rat, brain (striatum) dialysate, intravenous, 100 mg/kg
EXPERIMENTAL_READOUT: concentration at 140 min

Query block: Item CC(C)C(=O)OC[C@H]1O[C@@H](n2ccc(NO)nc2=O)[C@H](O)[C@@H]1O has what recorded concentration at 140 min?
Result block: 103 ng/mL

* * *

Format: in vivo
CONDITIONS_USED: male, Sprague-Dawley, rat, brain (striatum microdialysate), iv, 100 mg/kg
EXPERIMENTAL_READOUT: Tmax (min)
Express it in min; write the number only.

Query block: Item CC(C)C(=O)OC[C@H]1O[C@@H](n2ccc(NO)nc2=O)[C@H](O)[C@@H]1O has what recorded Tmax?
Result block: 40

* * *

Format: in vivo
CONDITIONS_USED: male, Sprague-Dawley, rat, blood (microdialysate), iv, 100 mg/kg
EXPERIMENTAL_READOUT: half-life (min)
Express it in min; write the number only.

Query block: Item CC(C)C(=O)OC[C@H]1O[C@@H](n2ccc(NO)nc2=O)[C@H](O)[C@@H]1O has what recorded half-life?
Result block: 35

* * *

MEASUREMENT_PROTOCOL: Pharmacokinetics of molnupiravir and NHC in rat blood and brain
Assay type: in vivo
CONDITIONS_USED: male, Sprague-Dawley, rat, brain (striatum microdialysate), iv, 100 mg/kg
EXPERIMENTAL_READOUT: half-life (min)
Express it in min; write the number only.

Query block: Item CC(C)C(=O)OC[C@H]1O[C@@H](n2ccc(NO)nc2=O)[C@H](O)[C@@H]1O has what recorded half-life?
Result block: 10

* * *

Type: in vivo
CONDITIONS_USED: male, Sprague-Dawley, rat, brain (striatum) dialysate, iv, 100 mg/kg
EXPERIMENTAL_READOUT: Cmax (ng/mL)
Express it in ng/mL; write the number only.

Query block: Item CC(C)C(=O)OC[C@H]1O[C@@H](n2ccc(NO)nc2=O)[C@H](O)[C@@H]1O has what recorded Cmax?
Result block: 790

* * *

Format: in vivo
CONDITIONS_USED: male, Sprague-Dawley, rat, blood dialysate, iv, 100 mg/kg
EXPERIMENTAL_READOUT: Cmax (µg/mL)
Express it in µg/mL; write the number only.

Query block: Item CC(C)C(=O)OC[C@H]1O[C@@H](n2ccc(NO)nc2=O)[C@H](O)[C@@H]1O has what recorded Cmax?
Result block: 199

* * *

Type: in vivo
CONDITIONS_USED: male, Sprague-Dawley, rat, blood (microdialysate), iv, 100 mg/kg
EXPERIMENTAL_READOUT: Cmax (µg/mL)
Express it in µg/mL; write the number only.

Query block: Item CC(C)C(=O)OC[C@H]1O[C@@H](n2ccc(NO)nc2=O)[C@H](O)[C@@H]1O [Molnupiravir, molnupiravir] has what recorded Cmax?
Result block: 185

* * *

MEASUREMENT_PROTOCOL: Pharmacokinetics of molnupiravir and NHC in rat blood and brain
Assay type: in vivo
CONDITIONS_USED: male, Sprague-Dawley, rat, blood (microdialysate), iv, 100 mg/kg
EXPERIMENTAL_READOUT: clearance (mL/min/kg)
Express it in mL/min/kg; write the number only.

Query block: Item CC(C)C(=O)OC[C@H]1O[C@@H](n2ccc(NO)nc2=O)[C@H](O)[C@@H]1O has what recorded clearance?
Result block: 32.1

* * *

MEASUREMENT_PROTOCOL: Pharmacokinetics of molnupiravir and NHC in rat blood and brain
Type: in vivo
CONDITIONS_USED: male, Sprague-Dawley, rat, brain (striatum) dialysate, iv, 100 mg/kg
EXPERIMENTAL_READOUT: MRT (min)
Express it in min; write the number only.

Query block: Item CC(C)C(=O)OC[C@H]1O[C@@H](n2ccc(NO)nc2=O)[C@H](O)[C@@H]1O [Molnupiravir, molnupiravir] has what recorded MRT?
Result block: 35

* * *

Format: in vivo
CONDITIONS_USED: male, Sprague-Dawley, rat, brain (striatum) dialysate, iv, 100 mg/kg
EXPERIMENTAL_READOUT: half-life
Report the figure along with its unit, number first.

Query block: Item CC(C)C(=O)OC[C@H]1O[C@@H](n2ccc(NO)nc2=O)[C@H](O)[C@@H]1O [Molnupiravir, molnupiravir] has what recorded half-life?
Result block: 2.47 h

* * *

Assay type: in vivo
CONDITIONS_USED: male, Sprague-Dawley, rat, blood (microdialysate), iv, 100 mg/kg
EXPERIMENTAL_READOUT: AUC (ng·h/mL)
Express it in ng·h/mL; write the number only.

Query block: Item CC(C)C(=O)OC[C@H]1O[C@@H](n2ccc(NO)nc2=O)[C@H](O)[C@@H]1O [Molnupiravir, molnupiravir] has what recorded AUC?
Result block: 77400

* * *

Format: in vivo
CONDITIONS_USED: male, Sprague-Dawley, rat, brain (striatum) dialysate, iv, 100 mg/kg
EXPERIMENTAL_READOUT: Cmax (ng/mL)
Express it in ng/mL; write the number only.

Query block: Item CC(C)C(=O)OC[C@H]1O[C@@H](n2ccc(NO)nc2=O)[C@H](O)[C@@H]1O has what recorded Cmax?
Result block: 500

* * *

Assay type: in vivo
CONDITIONS_USED: male, Sprague-Dawley, rat, brain (striatum microdialysate), iv, 100 mg/kg
EXPERIMENTAL_READOUT: AUC (ng·h/mL)
Express it in ng·h/mL; write the number only.

Query block: Item CC(C)C(=O)OC[C@H]1O[C@@H](n2ccc(NO)nc2=O)[C@H](O)[C@@H]1O has what recorded AUC?
Result block: 755

* * *

MEASUREMENT_PROTOCOL: Pharmacokinetics of molnupiravir and NHC in rat blood and brain
Assay type: in vivo
CONDITIONS_USED: male, Sprague-Dawley, rat, blood (microdialysate), iv, 100 mg/kg
EXPERIMENTAL_READOUT: half-life
Report the figure along with its unit, number first.

Query block: Item CC(C)C(=O)OC[C@H]1O[C@@H](n2ccc(NO)nc2=O)[C@H](O)[C@@H]1O has what recorded half-life?
Result block: 9 min

* * *

MEASUREMENT_PROTOCOL: Pharmacokinetics of molnupiravir and NHC in rat blood and brain
Type: in vivo
CONDITIONS_USED: male, Sprague-Dawley, rat, blood dialysate, intravenous, 100 mg/kg
EXPERIMENTAL_READOUT: concentration at 140 min (ng/mL)
Express it in ng/mL; write the number only.

Query block: Item CC(C)C(=O)OC[C@H]1O[C@@H](n2ccc(NO)nc2=O)[C@H](O)[C@@H]1O [Molnupiravir, molnupiravir] has what recorded concentration at 140 min?
Result block: 49.2

Just for reference, paper PMC10228170 is where these values come from.
